- Read-out: Intercellular Adhesion Molecule 1 (ICAM1), ICAM1 (gene 3383)
- protocol: BSK_KF3CT_ICAM1: BioMAP Diversity Plus: KF3CT Assay for Intercellular Adhesion Molecule 1 (ICAM1) Biomarker Activity (AID 2283067)
- applied_conditions: primary human keratinocytes with fibroblasts; actives raise or lower the signal
Active and inactive are the calls of the source. How the source made its calls: active means hit-call score of the fitted dose curve at least 0.9, where 1 is the maximum; inactive means score below 0.9.
Valid outcomes are listed here; reply with one: active, inactive

Example entries begin here.
CC(Cl)CN(C)C (stereo not given) ... inactive
NC(=O)C(F)(F)C(F)(F)F ... inactive
N#Cc1cc([N+](=O)[O-])ccc1N ... inactive

Q: Recorded call for CCCCc1ccccc1 ?
Ans: inactive

Q: Recorded call for [N-]=[N+]=[N-] ?
Ans: inactive

Q: Recorded call for CCOC(=O)c1ccccc1C(=O)OCC ?
Ans: inactive

Q: Recorded call for O=P1(N(CCCl)CCCl)NCCCO1 (stereo not given) ?
Ans: inactive

Q: Recorded call for CCCCC(CC)COP(=O)(Oc1ccccc1)Oc1ccccc1 (stereo not given) ?
Ans: inactive

Q: Recorded call for CCCCN(CCCC)N=O ?
Ans: inactive

Q: Recorded call for CC(C)Nc1ccc(Nc2ccccc2)cc1 ?
Ans: active

Q: Recorded call for CCCN(CCC)c1c([N+](=O)[O-])cc(C(C)C)cc1[N+](=O)[O-] ?
Ans: inactive

Q: Recorded call for c1nc[nH]n1 ?
Ans: inactive

Q: Recorded call for CC(C)(C)c1ccccc1OP(=O)(Oc1ccccc1)Oc1ccccc1 ?
Ans: inactive

Q: Recorded call for Nc1ccc([N+](=O)[O-])cc1Cl ?
Ans: inactive

Q: Recorded call for c1ccc(OP(Oc2ccccc2)Oc2ccccc2)cc1 ?
Ans: inactive

Q: Recorded call for COP(=O)(O)OC ?
Ans: inactive

Q: Recorded call for Cc1ccc(N)cc1N ?
Ans: inactive

* * *

- protocol: CEETOX_H295R_ESTRONE: CeeTox H295R High-throughput Steroidogenesis Assay for Estrone (AID 2283441);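 further: estrone secreted into medium measured by LC-MS/MS after dansyl derivatization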
- applied_conditions: actives raise or lower the signal
Activity calls are given as the source filed them. Rule for the calls: active = hit-call score of the fitted dose curve at least 0.9, where 1 is the maximum; inactive = score below 0.9.
Valid outcomes are listed here; reply with one: Yes = active, No = inactive

Oc1ccc(I)cc1 ... No

Q: Recorded call for Nc1cc2c3c(c1)C(c1ccccc1)=N[C@@H](NC(=O)c1cccnc1)C(=O)N3CC2 ?
Ans: No

* * *

- Read-out: Human Leukocyte Antigen - DR isotype (HLADR), HLA-DRA (gene 3122)
- protocol: BSK_BE3C_HLADR: BioMAP Diversity Plus: BE3C Assay for Human Leukocyte Antigen - DR isotype (HLADR) Biomarker Activity (AID 2283032)
- applied_conditions: primary human bronchial epithelial cells; actives raise or lower the signal
- Description: BSK_BE3C is a cell-based, multiplexed-readout assay that uses bronchial epithelial cell, a human lung primary cell, with measurements taken at 24 hours after chemical dosing in a 96-well plate.BSK_BE3C_HLADR is an assay component measured in the BSK_BE3C assay. It measures HLA-DR antibody related to regulation of gene expression using ELISA technology.Data from the assay component BSK_BE3C_HLADR was analyzed into 1 assay endpoint. […]
Calls of active or inactive are those of the source. The calls were made as follows: active = hit-call score of the fitted dose curve at least 0.9, where 1 is the maximum; inactive = score below 0.9.
Valid outcomes are listed here; reply with one: active, inactive

CSC(C)(C)C=NO ... inactive
CC(O)C(F)(F)C(F)(F)F (stereo unspecified) ... inactive
O=S(=O)(F)C(F)(F)C(F)(F)C(F)(F)C(F)(F)C(F)(F)C(F)(F)C(F)(F)C(F)(F)F ... inactive

Q: Recorded call for CCCCN(CCCC)N=O ?
Ans: inactive

Q: Recorded call for ClC(Cl)c1ccccc1 ?
Ans: inactive

Q: Recorded call for ClC1=C(Cl)C2(Cl)C3C(Cl)C(Cl)CC3C1(Cl)C2(Cl)Cl (stereo unspecified) ?
Ans: active

Q: Recorded call for c1ccc(OP(Oc2ccccc2)Oc2ccccc2)cc1 ?
Ans: inactive

Q: Recorded call for CC(C)(C)OOC(C)(C)C ?
Ans: inactive

Q: Recorded call for CCC(C)(C)c1ccc(O)cc1 ?
Ans: inactive

Q: Recorded call for COP(=O)(O)OC ?
Ans: inactive

Q: Recorded call for CCCCOCCOP(=O)(OCCOCCCC)OCCOCCCC ?
Ans: inactive

Q: Recorded call for O=P1(N(CCCl)CCCl)NCCCO1 (stereo unspecified) ?
Ans: inactive

Q: Recorded call for CCOP(=S)(NC(C)C)Oc1ccccc1C(=O)OC(C)C (stereo unspecified) ?
Ans: inactive

Q: Recorded call for NC(=O)C(F)(F)C(F)(F)F ?
Ans: inactive

Q: Recorded call for O=C(O)C(F)(F)C(F)(F)C(=O)O ?
Ans: inactive

Q: Recorded call for O=[N+]([O-])c1ccc(Cl)c(Cl)c1 ?
Ans: inactive

Q: Recorded call for Cc1ccc(O)cc1C ?
Ans: inactive

Q: Recorded call for Nc1ccc([N+](=O)[O-])cc1Cl ?
Ans: inactive

Q: Recorded call for C=CC(=O)OCC(CC)(COC(=O)C=C)COC(=O)C=C ?
Ans: active

Q: Recorded call for O=C(O)C(Cl)Cl ?
Ans: inactive

Q: Recorded call for Nc1ccc(Cl)cc1 ?
Ans: inactive

Q: Recorded call for CCN(CC)c1ccccc1 ?
Ans: inactive

Q: Recorded call for ClC(Cl)=C(c1ccc(Cl)cc1)c1ccccc1Cl ?
Ans: active

Q: Recorded call for O=[N+]([O-])c1ccccc1 ?
Ans: inactive
